# assay-protocol: in vitro
# Assay type: in vitro ADME, human
# details: human, Caco-2, pH 6, RB→A/A→B
outcome-measure: efflux ratio at 180 min, 50 μg/mL

C[C@@H]1CC[C@]2(C(=O)O)CC[C@]3(C)C(=CC[C@@H]4[C@@]5(C)C[C@@H](O)[C@@H](O)C(C)(C)[C@@H]5CC[C@]43C)[C@@H]2[C@]1(C)O | 0.95
O=C(/C=C/c1ccc(O)cc1)OC[C@H]1O[C@@H](Oc2c(-c3ccc(O)cc3)oc3cc(O)cc(O)c3c2=O)[C@H](O)[C@@H](O)[C@@H]1O [Tiliroside] | 1.2

* * *

# assay-protocol: in vitro
# Type: in vitro ADME, human
# details: human, Caco-2, pH 8, Papp × 10^−4 (cm/s) (A→B)
outcome-measure: Papp A→B at 180 min, 100 μg/mL (×10⁻⁶ cm/s)

O=C(/C=C/c1ccc(O)cc1)OC[C@H]1O[C@@H](Oc2c(-c3ccc(O)cc3)oc3cc(O)cc(O)c3c2=O)[C@H](O)[C@@H](O)[C@@H]1O [Tiliroside] | 92

* * *

# assay-protocol: in vitro
# Type: in vitro ADME, human
# details: human, Caco-2, pH 9, Papp × 10^−4 (cm/s) (B→A)
outcome-measure: Papp B→A at 180 min, 150 μg/mL (×10⁻⁶ cm/s)

O=C(/C=C/c1ccc(O)cc1)OC[C@H]1O[C@@H](Oc2c(-c3ccc(O)cc3)oc3cc(O)cc(O)c3c2=O)[C@H](O)[C@@H](O)[C@@H]1O [Tiliroside] | 62

* * *

# assay-protocol: in vitro
# Type: in vitro ADME, human
# details: human, Caco-2, pH 8, RB→A/A→B
outcome-measure: efflux ratio at 180 min, 150 μg/mL

C[C@@H]1CC[C@]2(C(=O)O)CC[C@]3(C)C(=CC[C@@H]4[C@@]5(C)C[C@@H](O)[C@@H](O)C(C)(C)[C@@H]5CC[C@]43C)[C@@H]2[C@]1(C)O | 0.91

* * *

# Test system: P-gp
# assay-protocol: in vitro
# Assay type: in vitro ADME, human
# details: human, Caco-2, Papp × 10^−4 (cm/s) (A→B)
outcome-measure: Papp A→B at 180 min, 100 μg/mL (×10⁻⁶ cm/s)

O=C(/C=C/c1ccc(O)cc1)OC[C@H]1O[C@@H](Oc2c(-c3ccc(O)cc3)oc3cc(O)cc(O)c3c2=O)[C@H](O)[C@@H](O)[C@@H]1O [Tiliroside] | 180

* * *

# assay-protocol: in vitro
# Type: in vitro ADME, human
# details: human, Caco-2, pH 5, RB→A/A→B
outcome-measure: efflux ratio at 180 min, 100 μg/mL

O=C(/C=C/c1ccc(O)cc1)OC[C@H]1O[C@@H](Oc2c(-c3ccc(O)cc3)oc3cc(O)cc(O)c3c2=O)[C@H](O)[C@@H](O)[C@@H]1O [Tiliroside] | 1.31

* * *

Listed here are compounds together with their documented efflux ratio at 180 min, 150 μg/mL.
# Tested on: P-gp
# assay-protocol: in vitro
# Assay type: in vitro ADME, human
# details: human, Caco-2, RB→A/A→B
# Procedure: A precise amount of FRLE reserve solution is diluted to concentrations of 50, 100, and 150 μg/mL, representing the low, medium, and high concentrations of FRLE. […] In the formula, 1.5 represents the volume of the test solution added to the B-side chamber (mL), 0.5 represents the volume of the test solution added to the A-side chamber (mL), and 0.2 is the volume of each sample taken (mL). […] The apparent permeability coefficient Papp (cm/s) is calculated using the following formula ([Lu et al., 2020]): […]
outcome-measure: efflux ratio at 180 min, 150 μg/mL

O=C(/C=C/c1ccc(O)cc1)OC[C@H]1O[C@@H](Oc2c(-c3ccc(O)cc3)oc3cc(O)cc(O)c3c2=O)[C@H](O)[C@@H](O)[C@@H]1O [Tiliroside] | 0.96
C[C@@H]1CC[C@]2(C(=O)O)CC[C@]3(C)C(=CC[C@@H]4[C@@]5(C)C[C@@H](O)[C@@H](O)C(C)(C)[C@@H]5CC[C@]43C)[C@@H]2[C@]1(C)O | 1.58
